assay system: Muscarinic acetylcholine receptor M4 (Rattus norvegicus)
Sequence (P08485 whole entry): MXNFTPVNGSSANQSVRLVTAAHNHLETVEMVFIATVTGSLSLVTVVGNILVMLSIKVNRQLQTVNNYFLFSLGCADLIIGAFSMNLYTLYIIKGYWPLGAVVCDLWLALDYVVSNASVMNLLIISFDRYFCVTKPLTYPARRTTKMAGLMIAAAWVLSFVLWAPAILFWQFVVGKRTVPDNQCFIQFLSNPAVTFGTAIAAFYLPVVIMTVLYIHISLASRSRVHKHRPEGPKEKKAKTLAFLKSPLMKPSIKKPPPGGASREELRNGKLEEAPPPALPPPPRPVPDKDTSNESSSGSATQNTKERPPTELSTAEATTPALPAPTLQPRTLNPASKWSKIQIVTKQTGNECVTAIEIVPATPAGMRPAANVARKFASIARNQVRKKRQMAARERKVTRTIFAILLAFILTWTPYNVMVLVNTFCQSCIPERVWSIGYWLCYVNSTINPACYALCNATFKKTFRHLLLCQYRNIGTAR
experiment: Activation of rat muscarinic M4 receptor expressed in CHO cells coexpressing chimeric Gqi5 protein assessed as potentiation of acetylcholine-induced intracellular Ca2+ mobilization
Type: functional, cell-based
reported conditions: read-out: EC50
pEC50: −log10 of the molar value.
measurement type: pEC50

* O=C1C(=O)N(Cc2ccc(C(F)(F)F)cc2)c2c(Cl)cccc21 | < 5.00

---

experiment: Tmax in Sprague-Dawley rat brain at 10 mg/kg, ip
Format: ADME, organism-based
Design: dose 10 mg/kg, route intraperitoneal
measurement type: Tmax (min)

- COc1ccc(CN2C(=O)C(=O)c3cc(OC(F)(F)F)ccc32)cc1: 30

---

assay system: UniProtKB P08912
Sequence (P08912 whole entry): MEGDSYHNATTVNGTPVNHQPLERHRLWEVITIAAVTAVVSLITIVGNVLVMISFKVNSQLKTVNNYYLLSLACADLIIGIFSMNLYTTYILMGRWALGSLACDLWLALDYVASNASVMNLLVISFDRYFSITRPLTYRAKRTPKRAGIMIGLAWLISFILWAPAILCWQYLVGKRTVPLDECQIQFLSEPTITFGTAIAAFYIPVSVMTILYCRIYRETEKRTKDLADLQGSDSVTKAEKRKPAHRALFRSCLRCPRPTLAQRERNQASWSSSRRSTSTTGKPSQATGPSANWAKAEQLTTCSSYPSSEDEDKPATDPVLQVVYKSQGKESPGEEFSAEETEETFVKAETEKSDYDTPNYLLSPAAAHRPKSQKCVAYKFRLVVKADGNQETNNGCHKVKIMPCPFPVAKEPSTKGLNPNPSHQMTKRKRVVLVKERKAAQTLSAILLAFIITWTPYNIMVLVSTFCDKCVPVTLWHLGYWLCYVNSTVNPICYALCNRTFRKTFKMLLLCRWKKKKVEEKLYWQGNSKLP
experiment: Activation of human muscarinic M5 receptor expressed in CHO cells coexpressing Gq protein assessed as potentiation of acetylcholine-induced intracellular Ca2+ mobilization
Type: functional, cell-based
pEC50: −log10 of the molar value.
measurement type: pEC50

• O=C1C(=O)N(Cc2ccc(C(F)(F)F)cc2)c2ccc(OC(F)(F)F)cc21 = 5.73
• O=C1C(=O)N(Cc2ccccc2C(F)(F)F)c2ccc(F)cc21 = 5.39
• O=C1C(=O)N(Cc2ccc(C(F)(F)F)cc2)c2ccccc21 = 5.50
• O=C1C(=O)N(Cc2ccc(OC(F)(F)F)cc2)c2ccc(OC(F)(F)F)cc21 = 5.73
• COc1ccc(CN2C(=O)C(=O)c3cccc(Cl)c32)cc1 = 5.40
• O=C1C(=O)N(Cc2ccccc2Cl)c2ccc(OC(F)(F)F)cc21 = 5.39
• COc1cccc(CN2C(=O)C(=O)c3cc(OC(F)(F)F)ccc32)c1 = 5.77
• O=C1C(=O)N(Cc2ccc(Br)cc2F)c2c(Cl)cccc21 = 5.33
• O=C1C(=O)N(Cc2ccc(C(F)(F)F)cc2)c2c(Cl)cccc21 = 5.68
• O=C1C(=O)N(Cc2ccc(Br)cc2)c2ccccc21 = 5.39
• COc1ccc(CN2C(=O)C(=O)c3cc(OC(F)(F)F)ccc32)cc1 = 5.94
• COc1cccc(CN2C(=O)C(=O)c3c(Cl)ccc(Cl)c32)c1 = 5.15
• O=C1C(=O)N(Cc2ccc(C(F)(F)F)cc2)c2c(F)cccc21 = 5.49
• O=C1C(=O)N(Cc2ccc(Br)cc2)c2c(F)cccc21 = 5.71
• Cc1ccccc1CN1C(=O)C(=O)c2cc(OC(F)(F)F)ccc21 = 5.48

---

experiment: AUC (0 to 6 hrs) in Sprague-Dawley rat brain at 10 mg/kg, ip
Format: ADME, organism-based
Parameters: time < 6 hr, dose 10 mg/kg, route intraperitoneal
measurement type: AUC(0-t) at 6 h (ng·h/mL)

• COc1ccc(CN2C(=O)C(=O)c3cc(OC(F)(F)F)ccc32)cc1 = 159

---

experiment: Cmax in Sprague-Dawley rat plasma at 10 mg/kg, ip within 1 hr
Format: ADME, organism-based
Set-up: dose 10 mg/kg, route intraperitoneal
measurement type: Cmax (ng/mL)

* COc1ccc(CN2C(=O)C(=O)c3cc(OC(F)(F)F)ccc32)cc1 | 162

---

experiment: Elimination half life in Sprague-Dawley rat brain at 10 mg/kg, ip
Format: ADME, organism-based
Design: dose 10 mg/kg, route intraperitoneal
reported conditions: read-out: beta t1/2 (converted)
measurement type: half-life

• COc1ccc(CN2C(=O)C(=O)c3cc(OC(F)(F)F)ccc32)cc1 = 3.69 h
